System: P388 leukemia ip, CD2F1 mice, survival T/C
ASSAY_PROTOCOL: NCI In Vivo Anticancer Drug Screen. Data for tumor model P388 Leukemia (intraperitoneal) in CD2F1 (CDF1) mice
APPLIED_CONDITIONS: endpoint: median survival time; dose: 12.5 mg/kg/injection; schedule: Q01DX009 (ip); vehicle: other
Inconclusive results and toxic doses are left out. The calls were made as follows: active = survival T/C of 150% or more; inactive = T/C below 125% in these data.
Your reply should match one of these outcome classes. active, inactive

Example entries and their recorded answers appear below.
COP(=O)(OC)/C(C)=N/NS(=O)(=O)c1ccc(C)cc1 :: inactive
Cc1nccc(N[N+](=O)[O-])c1C :: inactive
O=C(O)/C=N/NS(=O)(=O)c1ccc(Cl)cc1 :: inactive
COc1c2c(c(OC)c3c(OC)c4ccccc4c(OC)c13)CC(=O)CC2 :: inactive
COC(=O)C(Cc1cnc[nH]1)NC(=O)C(Cc1c[nH]c2ccccc12)NC(=O)OC(C)(C)C (stereo unspecified) :: inactive

In the following, a different compound is considered.
For this compound, state the assay outcome: "CCCC(=O)OCc1cc(=O)n(C)c2c3c4c(cc12)c(C)cc(=O)n4CO3"
active

---

# Lookup of reported T/C keyed by entry
Test system: P388 leukemia ip, CD2F1 mice, survival T/C
ASSAY_PROTOCOL: NCI In Vivo Anticancer Drug Screen. Data for tumor model P388 Leukemia (intraperitoneal) in CD2F1 (CDF1) mice
APPLIED_CONDITIONS: endpoint: median survival time; dose: 100.0 mg/kg/injection; schedule: Q01DX001 (ip); vehicle: saline with Tween-80; higher = longer survival
Description: The antitumor activity of compounds was measured in mice bearing transplantable tumors. Survival or tumor size were measured and the results are expressed as the measurement made in the treated group (T) divided by the measurement made in the vehicle treated control group (C). The tumor model used in this assay is P388 Leukemia (intraperitoneal) in CD2F1 (CDF1) mice
Inconclusive results and toxic doses are left out.

Some solved cases for reference:
CC1(C)CCNc2ccccc2S1 :: 103 % of control
COC(=O)Nc1c2ccccc2nc2c1c(C)c(C)c1ccccc12 :: 88 % of control
CC1(C)Cc2nn3c(c2C(=O)O1)CC(c1ccccc1)c1ccccc1-3 (configuration not stated) :: 90 % of control
COc1ccc2nc(-n3[nH]c(C)c(-c4cc(C)nn4-c4ccccc4)c3=O)cc(C)c2c1 :: 98 % of control
O=C1CCC2(c3ccccc3)CCCN=C2N1 (configuration not stated) :: 104 % of control

What value of T/C has been recorded for this entry: "Cc1nn(C(=S)S)c(C)c1N=Nc1cccc(Cl)c1Cl"
91 % of control

What value of T/C has been recorded for this entry: "CCN(CC)CCn1cnc2c(=S)[nH]c(=S)[nH]c21"
95 % of control

---

Tested on: P388 leukemia ip, CD2F1 mice, survival T/C
ASSAY_PROTOCOL: NCI In Vivo Anticancer Drug Screen. Data for tumor model P388 Leukemia (intraperitoneal) in CD2F1 (CDF1) mice
APPLIED_CONDITIONS: endpoint: median survival time; dose: 50.0 mg/kg/injection; schedule: Q01DX009 (ip); vehicle: saline with Tween-80; higher = longer survival
Inconclusive results and toxic doses are left out.
ASSAY_ENDPOINT: T/C

COc1ccc(-c2cc(=O)c3ccc4c(O)cccc4c3o2)cc1 :: 94 % of control
Nc1nc(Nc2ccccc2)nc(SCc2ccccc2)n1 :: 90 % of control
CC(=NC(C)(C)C)Nc1ccc(Cl)cc1 :: 103 % of control
CCCCCCCCCOCC(=O)O :: 100 % of control
Fc1ccccc1CSc1ncnc2nc[nH]c12 :: 100 % of control
N#Cc1ccc(CC(CC(=O)c2ccccc2)c2ccccc2)cc1 (stereo unspecified) :: 89 % of control
CC(C)C1C(=O)NC(c2ccc(N)cc2)c2ccccc21 (stereo unspecified) :: 93 % of control
CC(C)(C)N(C/C=C/CN(Cc1ccccc1)Cc1ccccc1)C(C)(C)C :: 87 % of control
C=C[C@@](C)(O)CC/C=C(/C)CCC=C(C)C :: 110 % of control
c1cc2sc3ccc(OCCCN4CCCCC4)cc3c2cc1OCCCN1CCCCC1 :: 91 % of control

What value of T/C has been recorded for this entry: "Cc1onc(-c2ccccc2Cl)c1C(=O)SCC(=O)Nc1cc(C(F)(F)F)cc(C(F)(F)F)c1"
98 % of control

What value of T/C has been recorded for this entry: "CS(C)=NC(=Nc1ccc(Cl)cc1)c1ccccc1"
106 % of control

What value of T/C has been recorded for this entry: CC(=O)OC1CCC2C3CCC4CC(=O)CCC4(C)C3CCC12C (stereo unspecified)
97 % of control

What value of T/C has been recorded for this entry: "C=CCn1c(-c2cccc(O)c2)n[nH]c1=S"
115 % of control

What value of T/C has been recorded for this entry: "c1cnc2c(c1)C1OC(S2)c2cccnc2S1"
102 % of control

What value of T/C has been recorded for this entry: "c1cc2c(cc1CSCc1c(CSCc3ccc4c(c3)OCO4)c(CSCc3ccc4c(c3)OCO4)c(CSCc3ccc4c(c3)OCO4)c(CSCc3ccc4c(c3)OCO4)c1CSCc1ccc3c(c1)OCO3)OCO2"
100 % of control

What value of T/C has been recorded for this entry: "C[Si](C)(C)O/C=C1\CCCCC1=O"
121 % of control

What value of T/C has been recorded for this entry: O=C1NC(=O)C(C2CCOC2=O)N1 (stereo unspecified)
106 % of control
